- STUDY_SYSTEM: Biotinylated CD33 protein (UniProt P20138)
- Sequence (P20138 18-259 limits assumed): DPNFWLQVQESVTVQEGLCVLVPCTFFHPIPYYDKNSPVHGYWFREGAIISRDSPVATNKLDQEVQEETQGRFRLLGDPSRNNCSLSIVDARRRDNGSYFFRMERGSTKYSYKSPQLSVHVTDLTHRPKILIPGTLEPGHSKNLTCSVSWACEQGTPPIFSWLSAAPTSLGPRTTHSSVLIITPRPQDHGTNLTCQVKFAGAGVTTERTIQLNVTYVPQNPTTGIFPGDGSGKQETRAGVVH
- METHOD_SUMMARY: Octet competition on biotinylated CD33; competitor 430
Below, each entry is listed with its recorded Octet signal.
Lab note: jot down the number only; don't add units.

[[record]]
binder = "sdCD33_7 (VHH, sdAb from a naive llama phage library; also called 420; sdAb420) VHH: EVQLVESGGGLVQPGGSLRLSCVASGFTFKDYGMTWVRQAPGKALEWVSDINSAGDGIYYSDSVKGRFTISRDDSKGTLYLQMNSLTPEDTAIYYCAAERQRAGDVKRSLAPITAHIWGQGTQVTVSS"
measurement_name = "Octet signal"
obs_value = 0.457


Record sdCD33_8 (VHH, sdAb from a naive llama phage library; also called 424; sdAb424) VHH: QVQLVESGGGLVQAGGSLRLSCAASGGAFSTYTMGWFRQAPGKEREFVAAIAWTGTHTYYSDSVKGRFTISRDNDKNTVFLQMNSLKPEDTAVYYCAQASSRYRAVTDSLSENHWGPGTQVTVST , field Octet signal: 0.733
